Taken from PubChem BioAssay.

Experiment: JC-1 mitochondrial signal, unstimulated HepG2 cells – cell-based, JC-1 fluorescence, 24 h, 100 nL compound, profiling panel (AID 1167); note: test concentration not given here
Settings: HepG2 mitochondrial potential, higher = more signal
QUANTITY: z-score
Numbers only.

[[record]]
molecule = "C=CC[C@]1(C(=O)N(C)C)N=C(c2ccc(OCCCO)cc2)O[C@H]1c1ccccc1"
quantity = "z-score"
result_number = 1.5

[[record]]
molecule = "COC(=O)[C@@]1(Cc2ccc(OC)cc2)[C@H]2c3cc(C(=O)N(C)C)n(Cc4cc(F)c(F)c(F)c4)c3C[C@H]2CN1C(=O)c1ccccc1"
quantity = "z-score"
result_number = 3.22

[[record]]
molecule = "COCCCNC(=O)[C@@]1(Cc2ccccc2)COC(c2ccc(OCCCO)cc2)=N1"
quantity = "z-score"
result_number = -1.11


# next molecule below
Documented z-score of CC(C)C[C@H]1NC(=O)[C@H](C)NC(=O)[C@@]23C(=O)N[C@@H](Cc4ccccc4)C2[C@H](C)[C@@]2(C)O[C@H]2C3/C=C/C/C=C\CNC1=O (some centres undefined) : -0.482

---

Test: budding yeast growth changes without added modifier – OD600, strain BY4716, 24 h, basal condition, primary screen (AID 1173)
Settings: S. cerevisiae BY4716 growth, OD600, 24 h; higher = more signal, called active from +8 up or from −8 down
Note to self: values exactly at -0.9 are Condition met. So z-score at or above -0.9 is Condition met, below is Condition not met.

Dear colleague, could you confirm whether COC(=O)[C@@]1(Cc2ccc(F)cc2)[C@H]2c3cc(C(=O)N(C)C)n(Cc4ccc(C)c(F)c4F)c3C[C@H]2CN1C(=O)c1ccccc1 has z-score at or above -0.9? Condition met

Please indicate if the recorded z-score for COCCOC(=O)N1C(=O)[C@@]2(c3ccccc31)[C@H](c1ccc(OCCO)cc1)N1[C@H](c3ccccc3)[C@H](c3ccccc3)OC(=O)[C@H]1[C@@H]2C(=O)NC[C@H](O)c1ccccc1 meets or exceeds -0.9. Condition met

Test whether the compound [N-]=[N+]=NCc1ccccc1[C@H]1OC(c2ccc(OCCCO)cc2)=N[C@@]1(Cc1ccccc1N=[N+]=[N-])C(=O)NCCN1CCOCC1 records z-score of -0.9 or higher. Condition not met

Does z-score meet or surpass -0.9 for CC(C)CCC[C@@H](C)[C@H]1CC[C@@]2(C)C3=C(CC[C@]12C)[C@@]1(C)CC[C@H](OC(=O)c2ccc(N)cc2)C(C)(C)C1CC3 (some centres not stated) ? Condition met

# bool: z-score of COCC(=C=CC[C@@H](O)c1ccccc1OCCO)C[C@@H](O)c1ccccn1 >= -0.9 Condition not met

Check if z-score >= -0.9 (inclusive). Item: NC(=O)[C@H]1[C@@H]2C(=O)O[C@@H](c3ccccc3)[C@@H](c3ccccc3)N2[C@@H](c2ccc(O)cc2)[C@]12C(=O)Nc1ccc(C#CC3(O)CCCCCC3)cc12 Condition met

Test whether the compound COC(=O)[C@@]1(Cc2ccccc2)[C@H]2c3cc(C(=O)N4CCCC4)n(Cc4ccccc4)c3C[C@H]2CN1C(=O)c1ccccc1 records z-score of -0.9 or higher. Condition met

---

Target: Left-right determination factor 2 (Homo sapiens)
Assay: small molecules binding LEFTY2 protein – biochemical, small-molecule microarray, 635 nm fluorescence scan, primary screen (AID 1110)
Settings: higher = more signal
Assignment: determine reported composite z-score for the given compounds.

[[record]]
compound = "C=CC[C@]1(C(=O)NCC(O)CO)N=C(c2ccc(OCCCO)cc2)O[C@H]1c1ccccc1N=[N+]=[N-] (some centres undefined)"
study_system = "Left-right determination factor 2 (Homo sapiens)"
result = -0.571


Your task in this section: give composite z-score for each listed record.
1. CCOC(=O)C[C@H]1[C@H](OC(=O)c2ccc(C(=O)c3ccccc3)cc2)[C@@H](NC(=O)C2CCCCC2)c2cc(OCCCO)ccc2N1C(=O)Cc1ccc(OC)cc1
2. Cc1ccc(S[C@]2(C(=O)NCCN3CCOCC3)CC(=O)N(C3Cc4ccccc4C3)[C@@H]2c2ccc(CO)cc2)cc1
3. CC(C)c1ccc(NN2C(C(O)c3ccccn3)C=CC3C(=O)N(c4ccccc4)C(=O)C32)cc1 (centres undefined)
4. C[N+](C)(C)CCCC[C@@H]1NC(=O)[C@@H]2C[C@H](C(=O)NCCCCCNC(=O)CS)[C@H](c3cccc(OCCO)c3)N2C1=O
5. C=CCNC(=O)[C@H]1[C@@H]2C(=O)O[C@@H](c3ccccc3)[C@@H](c3ccccc3)N2[C@@H](c2ccc(OCCO)cc2)[C@]12C(=O)N(C(=O)OCCOC)c1ccc(C#CC3=CCCCC3)cc12
6. OCCCC1=CC(c2cccs2)N(Cc2cccc(OC(F)(F)F)c2)CC1 (centres undefined)
7. COC(=O)C(CC#Cc1ccc2c(c1)[C@]1(C(=O)N2)[C@H](C(=O)N2CCc3cc(OC)c(OC)cc3C2)[C@H]2C(=O)O[C@H](c3ccccc3)[C@H](c3ccccc3)N2[C@@H]1c1ccc(O)cc1)C(=O)OC

1. 0.0258
2. -1.59
3. 0.581
4. 0.0926
5. 0.652
6. -0.0424
7. 1.35

---

Test: binders from COS7 lysate, DM2A8 probe, primary screen, torsin A project, cell lysate, small-molecule microarray, fluorescence 635/667 (AID 1065)
Details: higher = more signal, COS7 lysate expressing mutant human TOR1A
QUANTITY: composite z-score
Numbers only.

These solved cases illustrate the format of a correct answer.
[[record]]
compound = "C=CCNC(=O)[C@@H]1[C@H]2C(=O)O[C@H](c3ccccc3)[C@H](c3ccccc3)N2[C@H](c2ccc(O)cc2)[C@@]12C(=O)Nc1ccc(C#CCCO)cc12"
quantity = "composite z-score"
result_number = -0.395

[[record]]
compound = "COC(=O)[C@@]1(Cc2ccc(OC)cc2)[C@H]2c3cc(C(=O)N4CCCC4)n(CCF)c3C[C@H]2CN1C(=O)c1ccccc1"
quantity = "composite z-score"
result_number = -0.334

[[record]]
compound = "CC(C)=CCCC(C)=CC(O)C1C=CC2C(=O)N(c3ccccc3)C(=O)C2N1Nc1ccc([N+](=O)[O-])cc1 (centres undefined)"
quantity = "composite z-score"
result_number = 0.148

[[record]]
compound = "CN(C)CCCCNC(=O)[C@H]1C[C@H]2C(=O)N[C@@H](CCCC[N+](C)(C)C)C(=O)N2[C@H]1c1cccc(OCCO)c1"
quantity = "composite z-score"
result_number = 1.09

[[record]]
compound = "O=C1O[C@@H](c2ccccc2)[C@@H](c2ccccc2)N2[C@@H](c3ccc(O)cc3)[C@]3(C(=O)Nc4ccc(C#CC5(O)CCCCCC5)cc43)[C@@H](C(=O)N3CCN(c4ncccn4)CC3)[C@H]12"
quantity = "composite z-score"
result_number = 0.0262

[[record]]
compound = "COCCCNC(=O)[C@]1(Cc2ccccc2)N=C(c2ccc(OCCCO)cc2)O[C@@H]1c1ccccc1N=[N+]=[N-]"
quantity = "composite z-score"
result_number = 1.54


Could you tell me composite z-score for each of these compounds? They are listed below.
1. COC(=O)[C@@]1(Cc2ccc(F)cc2)[C@H]2c3cc(C(=O)N(C)C)n(Cc4ccc(C)c(F)c4F)c3C[C@H]2CN1C(=O)c1ccccc1
2. COc1cc2c(cc1OC)CN(C(=O)[C@@H]1[C@H]3C(=O)O[C@H](c4ccccc4)[C@H](c4ccccc4)N3[C@H](c3ccc(O)cc3)[C@@]13C(=O)Nc1ccc(C#CCNC(N)=O)cc13)CC2
3. CCCCC(=C=CC[C@H](O)c1ccccc1OCCO)C[C@H](O)c1ccccn1

[0.0685, -0.121, 1.07]

I'm hoping you can list composite z-score for every compound here, please.
1. COc1ccc(C#Cc2ccc3c(c2)[C@]2(C(=O)N3)[C@H](C(=O)O)[C@H]3C(=O)O[C@H](c4ccccc4)[C@H](c4ccccc4)N3[C@@H]2c2ccc(OCCO)cc2)cc1
2. CC(C)N1CC=CC23O[C@@H]4C=CCOC(=O)[C@@H]4[C@H]2C(=O)N(CCCCCCO)[C@@H]3C1=O (some centres undefined)

[0.959, -0.775]

Required: composite z-score, one value per compound below.
1. CN1C(=O)C2C=CC(C(O)c3cccc4ccccc34)N(NC(=O)OC(C)(C)C)C2C1=O (centres undefined)
2. CCOC(=O)C1=CC[C@@H](c2cccc(Br)c2)N(S(=O)(=O)c2ccc(C)cc2)[C@H]1c1ccc([N+](=O)[O-])cc1
3. COC(=O)[C@@]1(Cc2ccccc2)[C@H]2c3cc(C(=O)N(C)C)n(Cc4ccc(O)c(OC)c4)c3C[C@H]2CN1C(=O)c1ccccc1

1. 1.79
2. 2.18
3. 1.36

---

Experiment: inhibition of PAO1 biofilm formation – strain PAO1, LB-PBS medium, absorbance 600 nm, primary screen (AID 1176); note: test concentration not given here
Conditions: P. aeruginosa PAO1 growth/biofilm, A600, 12 h; higher = more signal
Calls of active or inactive are those of the source. The rule behind the calls is not given here.
QUANTITY: z-score

[[record]]
compound = "COCCOC(=O)N1C(=O)[C@@]2(c3cc(C#Cc4ccc(OC)cc4)ccc31)[C@H](c1ccc(OCCO)cc1)N1[C@H](c3ccccc3)[C@H](c3ccccc3)OC(=O)[C@H]1[C@@H]2C(N)=O"
result = "3.36 (inactive)"

[[record]]
compound = "CCCCC=C[C@@H](NC(=O)CCc1ccccc1)c1ccccc1"
result = "1.16 (inactive)"

[[record]]
compound = "C=C[C@@H](O)[C@H]1CC(c2ccccc2)=NO1"
result = "-0.496 (inactive)"

[[record]]
compound = "C=CCC(OC(C)=O)[C@@H]1[C@@H](N(Cc2cccc3ccccc23)C(=O)Cc2ccc(F)cc2)c2cc(OCCCO)ccc2N1C(=O)Cc1ccc(OC)cc1 (stereo not given in full)"
result = "-0.206 (inactive)"

[[record]]
compound = "Cc1ccc(S[C@]2(C(=O)O)CC(=O)N(Cc3ccccc3C(F)(F)F)[C@@H]2c2ccc(CO)cc2)cc1"
result = "0.127 (inactive)"


Kindly give each listed record's z-score.
1. COC(=O)[C@@]1(Cc2ccccc2)[C@H]2c3cc(C(=O)N4CCCC4)n(Cc4ccccc4)c3C[C@H]2CN1C(=O)c1ccccc1
2. [N-]=[N+]=NCc1ccccc1C[C@]1(C(=O)NCCN2CCOCC2)COC(c2ccc(OCCCO)cc2)=N1
3. COc1cc2c(cc1OC)CN(C(=O)[C@@H]1[C@H]3C(=O)O[C@H](c4ccccc4)[C@H](c4ccccc4)N3[C@H](c3ccc(O)cc3)[C@@]13C(=O)Nc1ccc(C#CCNC(N)=O)cc13)CC2
4. CN(C)CCCCCCNC(=O)[C@@H]1C[C@@H]2C(=O)NCC(=O)N2[C@@H]1c1ccc(O)cc1
5. CN(C)CCCNC(=O)[C@@]1(Cc2ccccc2I)c2ccccc2C(=O)N(Cc2ccccc2Cl)[C@H]1c1ccc(CO)cc1
6. COc1ccc(C#Cc2ccc3c(c2)[C@]2(C(=O)N3)[C@H](C(N)=O)[C@H]3C(=O)O[C@H](c4ccccc4)[C@H](c4ccccc4)N3[C@@H]2c2ccc(O)cc2)cc1
7. CCOC(=O)C1=CC[C@@H](c2cccc(Br)c2)N(S(=O)(=O)c2ccc(C)cc2)[C@H]1c1ccc([N+](=O)[O-])cc1
8. C/C=C/[C@@H](CCn1cc([C@H](O)c2ccccc2)nn1)[Si](C)(C)c1ccc(OC)cc1

1. 0.895 (inactive)
2. 0.535 (inactive)
3. 0.723 (inactive)
4. -0.13 (inactive)
5. -0.233 (inactive)
6. 1.41 (inactive)
7. 0.449 (inactive)
8. 0.0002 (inactive)

# batch size: 2; output z-score per entry
1. C[N+](C)(C)CCCCCCNC(=O)[C@@H]1C[C@@H]2C(=O)NCC(=O)N2[C@@H]1c1cccc(OCCO)c1
2. COc1ccc([Si](C)(C)[C@H]2[C@H](CCO)O[C@@]3(C(=O)N(Cc4cccc(N5CCOC5=O)c4)c4ccccc43)[C@@H]2C)cc1

1. 3.7 (inactive)
2. 2 (inactive)
